Test system: human PKK mRNA
Test: Antisense inhibition of human PKK mRNA in HepaRG cells, 1,000 nM, MOE/deoxy/cEt oligonucleotides (Example 3)
Type: cell-based
Conditions: HepaRG cells, electroporation with 1,000 nM antisense oligonucleotide, approx. 24 hours, PKK mRNA by RT-PCR (RTS3454), relative to untreated control cells; Table 25 experiment
Strand notation (5' to 3'): a small letter for the sugar, then the base; units joined by * are phosphorothioate-linked, units joined directly phosphodiester-linked; [ ] holds rarer units or linkages, { } end groups; capitals alone tell only the bases. e = 2'-O-(2-methoxyethyl) (MOE); k = constrained ethyl (cEt); [5mC] = 5-methylcytosine; d = 2'-deoxy (DNA)
Collected % inhibition values appear next to each entry.
endpoint: % inhibition (%)

1. 548227 (eG*eT*kG*dG*d[5mC]*d[5mC]*d[5mC]*dT*d[5mC]*dT*dT*dA*dA*kG*kT*e[5mC]; antisense) [compound 548227]: 0
2. 548187 (e[5mC]*eA*kT*d[5mC]*d[5mC]*dT*dA*dT*d[5mC]*d[5mC]*dG*dT*dG*kT*kT*e[5mC]; antisense) [compound 548187]: 33
3. 548216 (eG*eT*kG*d[5mC]*dA*dT*dA*dG*dA*d[5mC]*d[5mC]*d[5mC]*d[5mC]*kA*kA*e[5mC]; antisense) [compound 548216]: 45
4. 548198 (eA*e[5mC]*kT*dG*d[5mC]*dA*dG*dG*d[5mC]*dA*dA*dT*dA*kT*kT*eT; antisense) [compound 548198]: 49
5. 548170 (eA*eG*kT*dT*dG*d[5mC]*dG*dA*d[5mC]*d[5mC]*dT*d[5mC]*dG*k[5mC]*kA*eT; antisense) [compound 548170]: 68

These entries and their values trace back to patent US11840686B2.
